COMPOUND	melting point
CC(C)NC(=O)c1c[nH]c2ncc(Cl)nc12	278 to 279 °C
CC(C)(C)C(=O)c1c[nH]c2ncc(C(O)c3cccnc3)nc12 (stereo not drawn)	192 to 194 °C
CC(C)(C)C(=O)c1c[nH]c2ncc(C(O)c3ccccc3)nc12 (stereo not drawn)	168 to 170 °C

---

// melting point lookup, one value per entry

COMPOUND	melting point
Cc1ccccc1C(O)c1cnc2[nH]cc(C(=O)C(C)(C)C)c2n1 (centres unmarked)	181 to 183 °C
CC(C)(C)C(=O)c1c[nH]c2ncc(C(O)c3ccncc3)nc12 (centres unmarked)	189.1 to 194.9 °C
CCc1cnc2[nH]cc(C(=O)C(C)(C)C)c2n1	215 to 216 °C
CC(C)(C)C(=O)c1c[nH]c2ncc(Cl)nc12	209 to 210 °C
CC(C)C(O)c1cnc2[nH]cc(C(=O)C(C)(C)C)c2n1 (centres unmarked)	148 to 150 °C
